MEASUREMENT_DESCRIPTION: NCI Yeast Anticancer Drug Screen. Data for the sgs1 mgt1 strain (AID 161);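 note: 0% = growth of cultures given vehicle only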
CONDITION_DETAILS: S. cerevisiae sgs1 mgt1 strain, at 50.0 µM (retest, dose inferred, filed as 5.0), active compounds read high
The panel holds about 79,000 compounds, 15% with a hit somewhere; the sample as a whole holds those more often. Activity calls are given as the source filed them. Cut-off read from the data, not from the text of the source: active = growth inhibition above about 70%; inactive = the rest.
TEST_READOUT: growth inhibition

> print(dat)
                                    compound        measured
 1  COc1cc([C@@H]2c3cc4c(cc3C[C@@H]3COC(=O)C32)OCO4)cc(OC)c1O (stereo partly drawn)  45% (inactive)
 2  O=P(CP(=O)(c1ccccc1)c1ccccc1)(c1ccccc1)c1ccccc1.[CH3][Sn]([CH3])([Cl])[Cl]   8% (inactive)
 3  O=c1oc2ccccc2c(O)c1C(c1ccc2ccccc2c1)c1c(O)c2ccccc2oc1=O    92% (active)
 4  CC(C)C1(NC(=O)C2C=C3c4cccc5[nH]cc(c45)CC3N(C)C2)OC2(O)C3CCCN3C(=O)C(Cc3ccccc3)N2C1=O (stereo not drawn)    89% (active)
 5                         O=C(CI)NCc1ccccc1    99% (active)
 6  O=[N+]([O-])c1ccc(SC2CCCCCCC2Cl)c([N+](=O)[O-])c1 (stereo not drawn)    76% (active)
 7  Nc1nc(N)c(-c2ccc(Cl)c(Cl)c2)c(CCc2ccc(CNC(=O)c3ccc(S(=O)(=O)F)cc3)cc2)n1    98% (active)
 8  CC[C@](C)(O)C(=O)O[C@H]1C(=O)O[C@@H]2C[C@H]3C(C)=CC(=O)[C@@H](O)[C@]3(C)[C@H]3[C@@]4(O)OC[C@]32[C@@H]1[C@@H](C)[C@H]4O    91% (active)
 9  CC(C)c1c(O)c(O)c2c(c1O)C(=O)C(O)=C1C(C)(C)CCC[C@@]12C    95% (active)
10            [Cl][Sn]([c]1ccccc1)[c]1ccccc1    99% (active)
11  NC(N)=N/N=C1\C(=O)N(c2ccc(Cl)cc2)C(=O)C1C(=O)Nc1ccc(Cl)cc1 (stereo not drawn)  11% (inactive)
12                    Nc1ccc(N=Nc2ccccc2)cc1    92% (active)
13  Clc1ccc2c(NCCCCN3OC3c3ccccc3)ccnc2c1 (stereo not drawn)  57% (inactive)
14  Cc1cc(N(C)C)c2ccccc2[n+]1CCCCCCCCCC[n+]1c(C)cc(N(C)C)c2ccccc21    99% (active)
15  C/C=C(\C)C(=O)OC1C(C)=C2C(C1OC(=O)CCCCC)C(C)(OC(C)=O)CC(OC(=O)CCC)C1(O)C2OC(=O)C1(C)O (stereo not drawn)    91% (active)
16  Clc1c(Cl)c(Cl)c([S][Pb]([c]2ccccc2)([c]2ccccc2)[c]2ccccc2)c(Cl)c1Cl  42% (inactive)
17  C[C@]12CCC(=O)C=C1CC[C@@H]1C2CC[C@@]2(C)C1CC[C@@H]2OC(=O)C12OC1CCC2=O (stereo partly drawn)    93% (active)
18  N#CN(Cc1ccccc1)C(c1ccccc1)(c1ccccc1)c1ccccc1.[Cl][Sn]([c]1ccccc1)([c]1ccccc1)[c]1ccccc1    91% (active)
